- Test system: c-Src;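 also: 11-residue human phosphosite peptides and single-mutation variants displayed on the E. coli surface, counted by deep sequencing, each peptide's frequency after selection divided by its frequency in the unselected input library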;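 also: frequency after pTyr selection over input frequency; kinase dosed for 20-30% of maximal phosphorylation in three min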
- test details: phosphorylation enrichment, bacterial display (enrichment ratio); higher = better substrate or ligand; peptides without Tyr show the background
assay endpoint: phosphorylation enrichment
The answer should be written as a number, with no unit following it.

Worked cases, answers included:
KAESWYQTKFE [KRT75_Y342_E337K_YF] : 0.662
HLVSEYQQYQD [TUBB3_Y422_D417H] : 0.939
GTATTYLCGVK [ALPL_Y117_A116T] : 0.472
KELAKYFKLHH [AK7_Y390_N389K_YF] : 0.493

Return reported phosphorylation enrichment; argument: DLAAQYTTVGR [SGSH_Y240]
0.912

Return reported phosphorylation enrichment; argument: IENKLCGMSDP [RET_Y1062_Y1062C]
0.412

Return reported phosphorylation enrichment; argument: GPIIRYDLGGA [CYP11B1_Y81_F79I]
0.405

Return reported phosphorylation enrichment; argument: LNEVGYDDIGG [VCP_Y203]
0.812

Return reported phosphorylation enrichment; argument: NLRQQYNSPQE [UMPS_Y432_G429R]
0.316

Return reported phosphorylation enrichment; argument: RKLASYQSCLL [DHX37_Y1080_R1081Q]
0.463

Return reported phosphorylation enrichment; argument: PYSEPYADYGG [APBA1_Y187]
4.44

Return reported phosphorylation enrichment; argument: FPQARYHWLVL [APTX_Y214_K211Q_YF]
0.522

Return reported phosphorylation enrichment; argument: KSIEEYLKLVG [RASAL2_Y381]
0.438

Return reported phosphorylation enrichment; argument: SFCFRYCCAAR [SUMF1_Y344_R345C_YF]
0.397

Return reported phosphorylation enrichment; argument: LTGIAYSLPHW [SLC22A14_Y291]
0.764
